Molecular target: Gal(b1-4)GlcNAc(b1-3)Gal(b1-4)GlcNAc(b1-3)Gal(b1-4)GlcNAc(b1-3)Gal(b1-4)GlcNAc(b1-2)[Gal(b1-4)GlcNAc(b1-3)Gal(b1-4)GlcNAc(b1-3)Gal(b1-4)GlcNAc(b1-3)Gal(b1-4)GlcNAc(b1-6)]Man(a1-6)[Gal(b1-4)GlcNAc(b1-3)Gal(b1-4)GlcNAc(b1-3)Gal(b1-4)GlcNAc(b1-3)Gal(b1-4)GlcNAc(b1-2)Man(a1-3)]Man(b1-4)GlcNAc(b1-4)[Fuc(a1-6)]GlcNAc
Assay: glycan array binding signal (z-score within array); higher = stronger binding
Details: glycan notation: IUPAC condensed, linker removed
The sample as a whole holds a higher share of the strongest signals than the screen did.
parameter: glycan array binding signal (z-score)
Reply with just the number.

Worked cases, glycan array binding signal (z-score) given:
1) ECL (Erythrina cristagalli), Q6YD91 (protein) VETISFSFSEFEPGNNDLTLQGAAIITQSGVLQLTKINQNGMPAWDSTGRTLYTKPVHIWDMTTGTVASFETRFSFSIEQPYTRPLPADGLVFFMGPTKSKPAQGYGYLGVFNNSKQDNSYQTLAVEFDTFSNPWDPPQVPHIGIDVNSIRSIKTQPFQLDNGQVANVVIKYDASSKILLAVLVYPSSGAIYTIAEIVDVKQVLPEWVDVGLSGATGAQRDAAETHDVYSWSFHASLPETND = 5.63
2) rCnSL-proA (Clitocybe nebularis) (protein) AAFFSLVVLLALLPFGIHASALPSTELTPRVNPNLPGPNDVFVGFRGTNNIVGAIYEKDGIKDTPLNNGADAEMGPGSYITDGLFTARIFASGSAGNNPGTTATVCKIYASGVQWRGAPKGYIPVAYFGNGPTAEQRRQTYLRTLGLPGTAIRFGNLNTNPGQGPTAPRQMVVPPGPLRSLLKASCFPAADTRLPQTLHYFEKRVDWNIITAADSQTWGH = 4.64
3) Langerin K299A/K313A (Homo sapiens), Q9UJ71 (protein) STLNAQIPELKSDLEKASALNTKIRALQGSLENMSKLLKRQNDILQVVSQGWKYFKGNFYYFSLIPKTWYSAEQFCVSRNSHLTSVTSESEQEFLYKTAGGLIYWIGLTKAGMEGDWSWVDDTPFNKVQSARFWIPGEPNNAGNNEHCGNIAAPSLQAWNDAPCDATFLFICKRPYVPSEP = 3.09

Sure, the documented glycan array binding signal (z-score) for VLRB.aGPA.23-GCN4-biotin (Petromyzon marinus) (protein) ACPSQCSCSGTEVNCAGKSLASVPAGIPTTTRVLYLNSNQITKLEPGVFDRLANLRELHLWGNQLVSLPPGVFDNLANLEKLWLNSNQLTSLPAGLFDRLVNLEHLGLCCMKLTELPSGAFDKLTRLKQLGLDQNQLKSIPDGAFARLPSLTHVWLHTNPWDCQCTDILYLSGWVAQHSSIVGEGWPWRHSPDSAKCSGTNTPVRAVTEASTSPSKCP is -0.071

Quick note, glycan array binding signal (z-score) for pilr alpha (protein) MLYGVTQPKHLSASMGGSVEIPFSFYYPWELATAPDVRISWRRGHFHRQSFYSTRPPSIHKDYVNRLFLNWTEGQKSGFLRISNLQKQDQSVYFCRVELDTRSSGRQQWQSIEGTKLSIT landed at 2.72

The reported glycan array binding signal (z-score) of the binder LBL-152 (Laetiporus bicolor), B0D650 (protein) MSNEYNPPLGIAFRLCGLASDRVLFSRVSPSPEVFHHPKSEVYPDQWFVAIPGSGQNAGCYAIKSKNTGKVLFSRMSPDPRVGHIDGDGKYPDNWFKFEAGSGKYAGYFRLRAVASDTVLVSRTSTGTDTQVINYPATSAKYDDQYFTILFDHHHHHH was 6.24
